System: AMARE
Assay: Herbicidal post-emergence action 1a (greenhouse pots, visual rating)
Format: in vivo, Amaranthus retroflexus
Settings: dosage 320 g/ha, visual rating about 3 weeks after treatment
Field: Post-emergence action against AMARE in %. Provide a value for each of the compounds that follow.
One number for each entry, in %.

Batch request: Post-emergence action against AMARE in % per item, same order as input.
1. COC(=O)[C@@H](C)Oc1nn(-c2cnccn2)c(-c2ccc(F)nc2)c1Cl
2. COC(=O)C(C)Oc1nn(-c2cnccn2)c(-c2ccnc(F)c2)c1Cl (racemic)
3. CCOC(=O)[C@@H](C)Oc1nn(-c2cnccn2)c(-c2cncc(F)c2)c1Cl
4. CCOC(=O)COc1nn(-c2cnccn2)c(-c2ccccc2)c1Br

[90, 80, 80, 90]

----------
Field: Pre-emergence action against SETVI in %. Provide a value for each of the compounds that follow.
Test system: SETVI
Test: Herbicidal pre-emergence action 2a (greenhouse pots, visual scoring)
Assay type: in vivo, Setaria viridis
Details: dosage 320 g/ha, visual scoring after about 3 weeks vs untreated controls
A complete answer gives the number and then names the unit.

Example results:
1) CCOC(=O)[C@@H](C)Oc1nn(-c2cnccn2)c(-c2cncc(F)c2)c1Cl [Example I-98] = 100%
2) COC(=O)C(C)Oc1nn(-c2cnccn2)c(-c2ccnc(F)c2)c1Br (racemic) [Example I-10] = 100%

Batch request: Pre-emergence action against SETVI in % per item, same order as input.
1. COC(=O)COc1nn(-c2cnccn2)c(-c2ccc(F)c(F)c2)c1Br [Example I-15]
2. CCOC(=O)COc1nn(-c2cnccn2)c(-c2ccc(F)nc2)c1Br [Example I-52]
3. COCCOC(=O)COc1nn(-c2cnccn2)c(-c2ccc(F)nc2)c1Br [Example I-68]
4. COC(=O)C(C)Oc1nn(-c2cnccn2)c(-c2cncc(F)c2)c1Br (racemic) [Example I-08]
5. C[C@H](Oc1nn(-c2cnccn2)c(-c2cncc(F)c2)c1Br)C(=O)O [Example I-37]

1. 100%
2. 90%
3. 100%
4. 100%
5. 100%

Request: Pre-emergence action against SETVI in %, test system SETVI, entry COC(=O)[C@@H](C)Oc1nn(-c2cnccn2)c(-c2cncc(F)c2)c1Cl [Example I-95]
100%

----------
Test system: MATIN
Assay: Herbicidal post-emergence action 1b (twin sowing, 1280 g/ha)
Format: in vivo, Matricaria inodora
Settings: dosage 1280 g/ha, visual rating about 3 weeks after treatment
ATTRIBUTE_MEASURED: Post-emergence action at 1280 g/ha against MATIN in % (%)
Numbers only, in %.

Example results:
1. CCOC(=O)COc1nn(-c2cnccn2)c(-c2ccc(F)nc2)c1Br = 90
2. COC(=O)[C@H](C)Oc1nn(-c2cnccn2)c(-c2ccc(F)nc2)c1C#N = 100

Batch request: Post-emergence action at 1280 g/ha against MATIN in % per item, same order as input.
1. COC(=O)[C@@H](C)Oc1nn(-c2cnccn2)c(-c2ccc(F)nc2)c1Cl
2. C[C@@H](Oc1nn(-c2cnccn2)c(-c2cccc(F)c2)c1Br)C(=O)O
3. CC(Oc1nn(-c2cnccn2)c(-c2ccc(F)c(F)c2)c1Br)C(=O)O (centres unmarked)
4. N#CCOC(=O)COc1nn(-c2cnccn2)c(-c2ccc(F)nc2)c1Br
5. COC(=O)[C@@H](C)Oc1nn(-c2nccnc2Cl)c(-c2ccc(F)nc2)c1Br

1: 90; 2: 100; 3: 90; 4: 100; 5: 100

Look up Post-emergence action at 1280 g/ha against MATIN in % for this compound: CCOC(=O)COc1nn(-c2cnccn2)c(-c2ccc(F)nc2)c1Cl
100

----------
Test system: AMARE
Assay: Herbicidal post-emergence action 1a (greenhouse pots, visual rating)
Type: in vivo, Amaranthus retroflexus
Settings: dosage 320 g/ha, visual rating about 3 weeks after treatment
ATTRIBUTE_MEASURED: Post-emergence action against AMARE in %

Example results:
1. CCOC(=O)COc1nn(-c2cnccn2)c(-c2cccc(F)c2)c1Br = 80%
2. COC(=O)COc1nn(-c2cnccn2)c(-c2ccc(F)nc2)c1C1CC1 = 90%
3. O=C(O)COc1nn(-c2cnccn2)c(-c2cncc(F)c2)c1Cl = 90%
4. CCOC(=O)[C@@H](C)Oc1nn(-c2cnccn2)c(-c2ccc(F)nc2)c1C1CC1 = 80%
5. COC(=O)[C@@H](C)Oc1nn(-c2cnccn2)c(-c2ccc(F)nc2)c1I = 90%
6. CCOC(=O)COc1nn(-c2cnccn2)c(-c2ccc(F)nc2)c1Br = 80%

Batch request: Post-emergence action against AMARE in % per item, same order as input.
1. COC(=O)[C@@H](C)Oc1nn(-c2cnccn2)c(-c2cncc(F)c2)c1Cl
2. COC(=O)[C@@H](C)Oc1nn(-c2cnccn2)c(-c2cccc(F)c2)c1Br

["90%", "100%"]

----------
System: MATIN
Test: Herbicidal post-emergence action 1b (twin sowing, 1280 g/ha)
Format: in vivo, Matricaria inodora
Conditions: dosage 1280 g/ha, visual rating about 3 weeks after treatment
Field: Post-emergence action at 1280 g/ha against MATIN in %. Provide a value for each of the compounds that follow.

Example results:
1. COC(=O)[C@@H](C)Oc1nn(-c2cnccn2)c(-c2ccc(F)c(F)c2)c1C#N = 90%
2. COC(=O)[C@H](C)Oc1nn(-c2cnccn2)c(-c2ccc(F)nc2)c1Br = 90%
3. COC(=O)[C@@H](C)Oc1nn(-c2cnccn2)c(-c2cccnc2)c1Br = 90%
4. CCOC(=O)COc1nn(-c2nccnc2F)c(-c2ccc(F)c(F)c2)c1Br = 90%
5. O=C(O)COc1nn(-c2cnccn2)c(-c2ccc(F)c(F)c2)c1Br = 90%

Batch request: Post-emergence action at 1280 g/ha against MATIN in % per item, same order as input.
1. COC(=O)[C@@H](C)Oc1nn(-c2cnccn2)c(-c2cncc(F)c2)c1C#N
2. COC(=O)[C@@H](C)Oc1nn(-c2cnccn2)c(-c2cccc(F)c2)c1Br
3. COC(=O)C(C)Oc1nn(-c2cnccn2)c(-c2ccc(F)c(F)c2)c1Br (racemic)

["100%", "100%", "90%"]

----------
Field: Post-emergence action at 1280 g/ha against MATIN in %. Provide a value for each of the compounds that follow.
Tested on: MATIN
Test: Herbicidal post-emergence action 1b (twin sowing, 1280 g/ha)
Type: in vivo, Matricaria inodora
Conditions: dosage 1280 g/ha, visual rating about 3 weeks after treatment

1. O=C(O)COc1nn(-c2nccnc2Cl)c(-c2ccc(F)nc2)c1Br [Example I-73] = 100%
2. O=C(COc1nn(-c2cnccn2)c(-c2ccc(F)nc2)c1Br)OCc1ccccn1 [Example I-70] = 100%
3. CCOC(=O)COc1nn(-c2cnccn2)c(-c2ccc(F)nc2)c1[N+](=O)[O-] [Example I-50] = 90%
4. COCCOC(=O)COc1nn(-c2cnccn2)c(-c2ccc(F)nc2)c1Br [Example I-68] = 90%
5. COC(=O)[C@@H](C)Oc1nn(-c2cnccn2)c(-c2cncc(F)c2)c1Br [Example I-39] = 90%

Batch request: Post-emergence action at 1280 g/ha against MATIN in % per item, same order as input.
1. CC(C)=NOC(=O)COc1nn(-c2cnccn2)c(-c2ccc(F)nc2)c1Br [Example I-69]
2. CCOC(=O)COc1nn(-c2cnccn2)c(-c2ccc(F)nc2)c1C(F)(F)F [Example I-66]
3. CCOC(=O)COc1nn(-c2cnccn2)c(-c2cccc(F)c2)c1Br [Example I-02]

1: 90%; 2: 90%; 3: 90%

----------
Field: Post-emergence action against ALOMY in %. Provide a value for each of the compounds that follow.
Test system: ALOMY
Assay: Herbicidal post-emergence action 1a (greenhouse pots, visual rating)
Type: in vivo, Alopecurus myosuroides
Conditions: Dosage 80 g/ha; rated visually about 3 weeks after treatment; 100% = plants have died, 0% = like control plants
A complete answer gives the number and then names the unit.

Batch request: Post-emergence action against ALOMY in % per item, same order as input.
1. CCOC(=O)COc1nn(-c2cnccn2)c(-c2ccc(F)nc2)c1Br [Example I-52]
2. COC(=O)CNC(=O)[C@@H](C)Oc1nn(-c2cnccn2)c(-c2ccc(F)nc2)c1Br [II-03]
3. COCCOC(=O)COc1nn(-c2cnccn2)c(-c2ccc(F)nc2)c1Br [Example I-68]
4. COC(=O)[C@@H](C)Oc1nn(-c2cnccn2)c(-c2ccc(F)c(F)c2)c1C#N [Example I-46]
5. COC(=O)[C@@H](C)Oc1nn(-c2cnccn2)c(-c2ccc(F)nc2)c1Br [Example I-17]
6. COC(=O)C(C)Oc1nn(-c2cnccn2)c(-c2ccnc(F)c2)c1Br (racemic) [Example I-10]

1: 80%; 2: 80%; 3: 80%; 4: 90%; 5: 100%; 6: 90%

Batch request: Post-emergence action against ALOMY in % per item, same order as input.
1. COC(=O)COc1nn(-c2cnccn2)c(-c2ccc(F)c(F)c2)c1Br [Example I-15]
2. C=CCOC(=O)C(C)Oc1nn(-c2cnccn2)c(-c2ccc(F)nc2)c1Br (racemic) [Example I-13]
3. COCCOCCOC(=O)COc1nn(-c2cnccn2)c(-c2ccc(F)nc2)c1Br [Example I-67]
4. C[C@H](Oc1nn(-c2cnccn2)c(-c2cncc(F)c2)c1Br)C(=O)O [Example I-37]
5. COC(=O)[C@@H](C)Oc1nn(-c2cnccn2)c(-c2ccc(F)nc2)c1C1CC1 [Example I-87]

1. 80%
2. 90%
3. 90%
4. 90%
5. 100%
